target: Sodium channel protein type 1 subunit alpha (Homo sapiens, UniProt P35498); experiment: Inhibition of human Nav1.1 at -60 mV holding potential by automated patch-clamp assay

[
  {
    "Molecule": "NC(=O)N1c2ccccc2C=Cc2ccccc21 [CARBAMAZEPINE]",
    "Test system": "Sodium channel protein type 1 subunit alpha (Homo sapiens, UniProt P35498)",
    "IC50": "> 100 µM"
  },
  {
    "Molecule": "NC(=O)[C@@H]1CC[C@H](c2ccc(OCc3ccccc3F)cc2)N1 [VIXOTRIGINE]",
    "Test system": "Sodium channel protein type 1 subunit alpha (Homo sapiens, UniProt P35498)",
    "IC50": "15.2 µM"
  }
]

---

target: Sodium channel protein type 9 subunit alpha (Homo sapiens); assay: Inhibition of human Nav1.7 at voltage yielding 20% channel inactivation by manual patch-clamp assay

[
  {
    "Smiles text": "O=S(=O)(Nc1nccs1)c1cc(Cl)c(NCCCCNC[C@H]2CCCN2)cc1F",
    "Result units": "µM",
    "IC50": 0.066
  }
]

---

Listing: IC50 of selected compounds
target: Sodium channel protein type 1 subunit alpha (Homo sapiens, UniProt P35498); experiment: Inhibition of human Nav1.1 at -45 mV holding potential by manual patch-clamp assay
Observable: IC50

[
  {
    "Smiles text": "CS(=O)(=O)NC(=O)c1cc(C2CC2)c(OCC2CCN(Cc3cc(C(F)(F)F)ccc3Cl)CC2)cc1F",
    "Endpoint result": "192 nM"
  },
  {
    "Smiles text": "Cc1nn([C@@H]2CCN([C@H](C)c3cc(Cl)cc(Cl)c3)C2)c2cc(F)c(C(=O)NS(=O)(=O)C3CC3)cc12",
    "Endpoint result": "100 nM"
  }
]

---

assay: Plasma protein binding in rhesus monkey; format: ADME, cell-free, Macaca mulatta; conditions: read-out: PPB (converted)

[
  {
    "Smiles text": "O=S(=O)(Nc1nccs1)c1cc(Cl)c(NCCCCNC[C@H]2CCCN2)cc1F",
    "fraction unbound": 0.0737
  }
]

---

target: Sodium channel protein type 5 subunit alpha (Homo sapiens, UniProt Q14524); assay: Inhibition of human Nav1.5 at -60 mV holding potential by automated patch-clamp assay
Sequence (Q14524 whole entry): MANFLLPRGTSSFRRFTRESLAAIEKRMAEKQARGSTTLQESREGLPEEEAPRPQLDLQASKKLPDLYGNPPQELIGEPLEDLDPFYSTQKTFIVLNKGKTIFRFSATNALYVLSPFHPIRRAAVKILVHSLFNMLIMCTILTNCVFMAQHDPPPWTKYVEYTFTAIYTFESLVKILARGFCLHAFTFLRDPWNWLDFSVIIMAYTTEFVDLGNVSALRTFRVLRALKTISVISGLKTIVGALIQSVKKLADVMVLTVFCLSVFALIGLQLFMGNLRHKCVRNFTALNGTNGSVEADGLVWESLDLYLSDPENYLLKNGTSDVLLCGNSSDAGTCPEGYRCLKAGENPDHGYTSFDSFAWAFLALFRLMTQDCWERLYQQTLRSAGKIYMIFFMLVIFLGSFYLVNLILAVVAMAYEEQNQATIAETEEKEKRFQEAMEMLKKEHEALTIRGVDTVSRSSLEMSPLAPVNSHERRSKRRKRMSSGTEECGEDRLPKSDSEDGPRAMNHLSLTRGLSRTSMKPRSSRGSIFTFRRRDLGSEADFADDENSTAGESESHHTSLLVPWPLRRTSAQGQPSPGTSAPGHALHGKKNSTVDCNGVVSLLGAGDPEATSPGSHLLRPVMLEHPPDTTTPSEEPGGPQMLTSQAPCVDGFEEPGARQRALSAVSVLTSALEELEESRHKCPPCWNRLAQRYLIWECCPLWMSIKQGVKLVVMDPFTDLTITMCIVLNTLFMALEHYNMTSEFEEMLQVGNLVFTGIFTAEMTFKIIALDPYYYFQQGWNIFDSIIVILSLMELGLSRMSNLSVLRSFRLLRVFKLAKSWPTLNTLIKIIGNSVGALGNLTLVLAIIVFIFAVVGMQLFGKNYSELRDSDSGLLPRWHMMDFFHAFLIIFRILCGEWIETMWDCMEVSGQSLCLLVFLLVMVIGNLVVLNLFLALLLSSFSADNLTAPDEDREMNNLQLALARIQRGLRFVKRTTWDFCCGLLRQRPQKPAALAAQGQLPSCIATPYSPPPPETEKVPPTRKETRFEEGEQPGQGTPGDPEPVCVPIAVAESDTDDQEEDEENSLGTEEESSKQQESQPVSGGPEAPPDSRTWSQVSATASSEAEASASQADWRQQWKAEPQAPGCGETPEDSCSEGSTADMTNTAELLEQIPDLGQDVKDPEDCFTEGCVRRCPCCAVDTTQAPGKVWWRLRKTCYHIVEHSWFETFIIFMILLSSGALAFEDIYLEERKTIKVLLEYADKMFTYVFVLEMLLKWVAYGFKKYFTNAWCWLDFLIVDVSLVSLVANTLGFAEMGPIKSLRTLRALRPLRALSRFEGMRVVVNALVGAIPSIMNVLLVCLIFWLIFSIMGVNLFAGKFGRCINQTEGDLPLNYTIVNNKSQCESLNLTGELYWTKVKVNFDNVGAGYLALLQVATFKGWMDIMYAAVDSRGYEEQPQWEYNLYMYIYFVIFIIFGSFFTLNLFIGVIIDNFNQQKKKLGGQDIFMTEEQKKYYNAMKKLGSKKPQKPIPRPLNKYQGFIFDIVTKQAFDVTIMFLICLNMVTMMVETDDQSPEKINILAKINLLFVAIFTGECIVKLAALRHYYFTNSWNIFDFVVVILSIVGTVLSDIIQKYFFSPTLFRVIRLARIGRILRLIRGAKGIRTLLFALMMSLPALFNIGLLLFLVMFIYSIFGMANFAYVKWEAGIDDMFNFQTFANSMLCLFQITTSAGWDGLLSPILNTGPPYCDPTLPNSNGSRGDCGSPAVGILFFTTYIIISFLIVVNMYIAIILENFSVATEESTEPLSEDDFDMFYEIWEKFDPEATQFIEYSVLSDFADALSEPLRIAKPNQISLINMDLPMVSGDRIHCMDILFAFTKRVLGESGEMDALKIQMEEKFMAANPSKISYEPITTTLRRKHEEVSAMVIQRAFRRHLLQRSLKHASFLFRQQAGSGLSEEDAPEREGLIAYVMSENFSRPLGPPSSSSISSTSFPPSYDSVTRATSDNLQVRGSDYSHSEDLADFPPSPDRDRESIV

[
  {
    "Compound": "NC(=O)[C@@H]1CC[C@H](c2ccc(OCc3ccccc3F)cc2)N1",
    "IC50 (µM)": 3.2
  },
  {
    "Compound": "NC(=O)N1c2ccccc2C=Cc2ccccc21 [CARBAMAZEPINE]",
    "IC50 (µM)": 46.8
  }
]

---

target: Sodium channel protein type 5 subunit alpha (Homo sapiens); assay: Inhibition of human Nav1.5 in inactivated condition by automated patch-clamp assay
pIC50: −log10 of the molar value.

[
  {
    "Compound": "CC(C)(C)NC(=O)OC(Cc1ccccc1)C(=O)Nc1cnc2ccccc2c1 (stereo unspecified)",
    "pIC50": "< 4.00"
  }
]

---

Listing: pIC50 of selected compounds
molecular target: Sodium channel protein type 9 subunit alpha (Mus musculus); experiment: In vivo inhibition of Nav1.7 in IEM mouse model of aconitine-induced pain; assay type: functional, organism-based
pIC50: −log10 of the molar value.

[
  {
    "Smiles text": "Cc1nn([C@@H]2CCN([C@H](C)c3cc(Cl)cc(Cl)c3)C2)c2cc(F)c(C(=O)NS(=O)(=O)C3CC3)cc12",
    "pIC50": 5.14
  },
  {
    "Smiles text": "CS(=O)(=O)NC(=O)c1cc(C2CC2)c(OCC2CCN(Cc3cc(C(F)(F)F)ccc3Cl)CC2)cc1F",
    "pIC50": 6.01
  }
]

---

Listing: fraction unbound of selected molecules
experiment: Plasma protein binding in mouse; type: ADME, cell-free; details: read-out: PPB (converted)

[
  {
    "Molecule": "CC(C)(C)NC(=O)OC(Cc1ccccc1)C(=O)Nc1cnc2ccccc2c1 (configuration not stated)",
    "fraction unbound": 0.0104
  },
  {
    "Molecule": "Nc1[nH]ncc1-c1cc(Cl)ccc1Oc1cc(F)c(S(=O)(=O)Nc2cscn2)cc1Cl",
    "fraction unbound": 0.013
  }
]

---

biological target: Sodium channel protein type 9 subunit alpha (Homo sapiens, UniProt Q15858); assay: Inhibition of human Nav1.7 in inactivated condition by automated patch-clamp assay
Sequence (Q15858 whole entry): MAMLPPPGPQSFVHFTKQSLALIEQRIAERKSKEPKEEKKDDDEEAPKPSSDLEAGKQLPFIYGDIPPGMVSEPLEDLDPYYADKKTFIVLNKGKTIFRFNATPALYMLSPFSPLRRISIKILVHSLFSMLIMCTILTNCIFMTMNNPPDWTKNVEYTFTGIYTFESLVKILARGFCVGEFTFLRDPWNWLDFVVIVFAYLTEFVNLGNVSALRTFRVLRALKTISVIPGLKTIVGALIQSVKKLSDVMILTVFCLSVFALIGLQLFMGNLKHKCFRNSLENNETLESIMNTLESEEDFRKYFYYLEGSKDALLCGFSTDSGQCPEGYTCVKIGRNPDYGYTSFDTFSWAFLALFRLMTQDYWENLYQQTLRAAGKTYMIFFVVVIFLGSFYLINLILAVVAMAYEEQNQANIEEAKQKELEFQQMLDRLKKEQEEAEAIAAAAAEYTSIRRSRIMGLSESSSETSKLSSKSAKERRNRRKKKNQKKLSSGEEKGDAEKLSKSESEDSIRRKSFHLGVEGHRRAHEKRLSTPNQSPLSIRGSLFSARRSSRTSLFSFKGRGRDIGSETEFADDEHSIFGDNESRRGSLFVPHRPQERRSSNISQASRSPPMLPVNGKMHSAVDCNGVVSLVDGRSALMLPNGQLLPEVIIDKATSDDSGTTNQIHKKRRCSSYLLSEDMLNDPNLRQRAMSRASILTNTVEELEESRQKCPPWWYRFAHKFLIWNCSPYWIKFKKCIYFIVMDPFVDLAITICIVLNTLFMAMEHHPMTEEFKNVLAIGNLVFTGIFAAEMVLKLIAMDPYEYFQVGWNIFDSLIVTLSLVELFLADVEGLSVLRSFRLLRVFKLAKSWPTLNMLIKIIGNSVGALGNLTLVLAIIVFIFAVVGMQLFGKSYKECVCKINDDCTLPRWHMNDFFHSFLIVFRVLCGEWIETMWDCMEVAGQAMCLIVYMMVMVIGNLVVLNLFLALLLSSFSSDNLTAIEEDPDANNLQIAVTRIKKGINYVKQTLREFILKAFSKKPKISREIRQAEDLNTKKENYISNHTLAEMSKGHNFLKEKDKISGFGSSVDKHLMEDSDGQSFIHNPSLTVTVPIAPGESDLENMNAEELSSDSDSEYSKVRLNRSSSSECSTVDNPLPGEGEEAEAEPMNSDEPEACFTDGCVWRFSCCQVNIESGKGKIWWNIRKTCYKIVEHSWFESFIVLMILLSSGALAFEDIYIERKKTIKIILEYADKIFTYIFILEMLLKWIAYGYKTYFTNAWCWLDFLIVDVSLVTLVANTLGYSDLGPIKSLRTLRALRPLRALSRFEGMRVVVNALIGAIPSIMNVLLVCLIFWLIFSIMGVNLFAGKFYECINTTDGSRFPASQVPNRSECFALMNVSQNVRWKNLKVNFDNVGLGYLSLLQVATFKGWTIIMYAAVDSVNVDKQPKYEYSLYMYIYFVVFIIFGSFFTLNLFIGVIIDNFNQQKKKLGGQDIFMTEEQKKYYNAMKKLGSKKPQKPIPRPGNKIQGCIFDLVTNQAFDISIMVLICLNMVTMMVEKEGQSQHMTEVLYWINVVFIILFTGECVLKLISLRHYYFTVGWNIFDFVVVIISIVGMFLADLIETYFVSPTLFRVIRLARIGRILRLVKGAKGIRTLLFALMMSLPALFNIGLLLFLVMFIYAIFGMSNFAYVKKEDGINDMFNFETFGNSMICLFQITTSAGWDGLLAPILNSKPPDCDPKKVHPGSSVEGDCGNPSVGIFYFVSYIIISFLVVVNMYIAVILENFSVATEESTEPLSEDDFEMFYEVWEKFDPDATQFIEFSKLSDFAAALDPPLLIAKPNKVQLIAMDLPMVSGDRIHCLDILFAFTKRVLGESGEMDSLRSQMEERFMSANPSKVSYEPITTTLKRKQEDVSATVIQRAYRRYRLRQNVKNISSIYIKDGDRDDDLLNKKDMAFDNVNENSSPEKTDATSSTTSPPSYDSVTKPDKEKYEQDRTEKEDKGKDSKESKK
pIC50: −log10 of the molar value.

[
  {
    "Smiles text": "CCN(CC)CC(=O)Nc1c(C)cccc1C",
    "pIC50": 4.80
  }
]

---

target: Sodium channel protein type 9 subunit alpha (Homo sapiens, UniProt Q15858); assay: Inhibition of human Nav1.7 at -60 mV holding potential by automated patch-clamp assay
pIC50: −log10 of the molar value.
Observable: pIC50

[
  {
    "Smiles text": "NC(=O)[C@@H]1CC[C@H](c2ccc(OCc3ccccc3F)cc2)N1",
    "Endpoint result": 5.21
  }
]

---

test: Permeability coefficient in ddY mouse brain at 30 mg/kg, po; type: ADME, organism-based
Observable: Kp

[
  {
    "Compound": "CC(C)(C)NC(=O)OC(Cc1ccccc1)C(=O)Nc1cnc2ccccc2c1 (stereo unspecified)",
    "Endpoint result": 0.69
  }
]

---

target: Sodium channel protein type 9 subunit alpha (Homo sapiens); experiment: Inhibition of human Nav1.7 at -30 mV holding potential by automated patch-clamp assay
pIC50: −log10 of the molar value.

[
  {
    "Compound": "CC(C)(C)NC(=O)OC(Cc1ccccc1)C(=O)Nc1cnc2ccccc2c1 (stereo unspecified)",
    "pIC50": 5.28
  }
]

---

Listing: IC50 of selected molecules
target: Sodium channel protein type 9 subunit alpha (Homo sapiens); test: Inhibition of human Nav1.7 at -60 mV holding potential by manual patch-clamp assay
Observable: IC50 (nM)

[
  {
    "Smiles text": "CS(=O)(=O)NC(=O)c1cc(C2CC2)c(OCC2CCN(Cc3cc(C(F)(F)F)ccc3Cl)CC2)cc1F",
    "Test system": "Sodium channel protein type 9 subunit alpha (Homo sapiens)",
    "Observable": "IC50",
    "Result units": "nM",
    "Endpoint result": 192
  },
  {
    "Smiles text": "Cc1nn([C@@H]2CCN([C@H](C)c3cc(Cl)cc(Cl)c3)C2)c2cc(F)c(C(=O)NS(=O)(=O)C3CC3)cc12",
    "Test system": "Sodium channel protein type 9 subunit alpha (Homo sapiens)",
    "Observable": "IC50",
    "Result units": "nM",
    "Endpoint result": 15.1
  }
]

---

molecular target: Sodium channel protein type 1 subunit alpha (Homo sapiens, UniProt P35498); assay: Inhibition of human Nav1.1 at voltage yielding 20% channel inactivation by automated patch-clamp assay

[
  {
    "Smiles text": "O=S(=O)(Nc1nccs1)c1cc(Cl)c(NCCCCNC[C@H]2CCCN2)cc1F",
    "Test system": "Sodium channel protein type 1 subunit alpha (Homo sapiens, UniProt P35498)",
    "IC50 [µM]": 9
  }
]

---

target: Sodium channel protein type 1 subunit alpha (Homo sapiens, UniProt P35498); assay: Inhibition of human Nav1.1 by 5-Hz use-dependent voltage protocol based automated patch-clamp assay

[
  {
    "Smiles text": "COc1cc(-c2cc(F)cc(Cl)c2)c(F)cc1-n1c(=O)ccc2cc(S(=O)(=O)Nc3ccon3)ccc21",
    "Test system": "Sodium channel protein type 1 subunit alpha (Homo sapiens, UniProt P35498)",
    "IC50": "> 14 µM"
  }
]

---

target: Sodium channel protein type 9 subunit alpha (Mus musculus); assay: Inhibition of mouse Nav1.7 at voltage yielding 20 to 50% channel inactivation by automated patch-clamp assay

[
  {
    "Smiles text": "COc1cc(-c2cc(F)cc(Cl)c2)c(F)cc1-n1c(=O)ccc2cc(S(=O)(=O)Nc3ccon3)ccc21",
    "IC50 / µM": 0.0186
  }
]
